Target: PD1/PD-L1 (Homo sapiens, UniProt Q9NZQ7)
Sequence (Q9NZQ7 19-290): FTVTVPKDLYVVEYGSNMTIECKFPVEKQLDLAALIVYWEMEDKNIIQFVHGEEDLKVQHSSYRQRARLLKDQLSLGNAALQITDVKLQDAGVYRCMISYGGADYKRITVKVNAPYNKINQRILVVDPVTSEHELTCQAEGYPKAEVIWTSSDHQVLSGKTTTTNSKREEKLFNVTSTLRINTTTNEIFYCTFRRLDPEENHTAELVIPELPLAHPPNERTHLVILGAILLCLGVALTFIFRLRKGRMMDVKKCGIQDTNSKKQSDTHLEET
Assay: NFAT activity test (TCR Activitor/PD-L1 CHO cells with PD-1/NFAT Reporter-Jurkat cells)
Type: cell-based
Set-up: host or cells: TCR Activitor/PD-L1 CHO cells; PD-1/NFAT Reporter-Jurkat cells
Settings: TCR Activitor/PD-L1 CHO cells + PD-1/NFAT Reporter-Jurkat cells, 5 hours, luciferase
Reported endpoint: Maximum effect (induction fold)

INSERT INTO measurements (compound, quantitative_readout) VALUES
  ('Cc1cc(C(=O)Nc2cccc(-c3cccc(NC(=O)c4ccc(CNCCO)cn4)c3C)c2C#N)nc2c1CCN(CCO)C2', 3.38),
  ('Cc1cc(C(=O)Nc2cccc(-c3cccc(NC(=O)c4ccc(CNCCO)cn4)c3C)c2Cl)nc2c1CCN(C(CO)CO)C2', 3.81),
  ('COc1nc(-c2cccc(-c3cccc(NC(=O)c4cc(C)c5c(n4)CN(C(C)CO)CC5)c3Cl)c2Cl)cnc1CN1CC(O)C1 (centres unmarked)', 3.48),
  ('COc1nc(-c2cccc(-c3cccc(NC(=O)c4cc(C)c5c(n4)CN(CC(O)CO)CC5)c3Cl)c2Cl)cnc1CN1CC(O)C1 (centres unmarked)', 4.80),
  ('COc1cc(C(=O)Nc2cccc(-c3cccc(-c4cnc(CN5CCC(CO)C5)c(OC)n4)c3Cl)c2Cl)nc2c1CCN(CCO)C2 (centres unmarked)', 2.75),
  ('COc1nc(-c2cccc(-c3cccc(NC(=O)c4cc(OC(F)F)c5c(n4)CN(CCO)CC5)c3Cl)c2Cl)cnc1CN1CC(O)C1', 3.80),
  ('Cc1cc(C(=O)Nc2cccc(-c3cccc(NC(=O)c4ccc(CNCCO)cn4)c3C)c2C)nc2c1CCN(CCO)C2', 3.71),
  ('COc1nc(-c2cccc(-c3cccc(NC(=O)c4cc(C)c5c(n4)CN(CC(C)O)CC5)c3Cl)c2Cl)cnc1CN1CC(O)C1 (centres unmarked)', 5.15),
  ('COc1nc(-c2cccc(-c3cccc(NC(=O)c4cc(C)c5c(n4)CCN(CCO)C5)c3Cl)c2Cl)cnc1CN1CC(O)C1', 5.16),
  ('COc1cc(C(=O)Nc2cccc(-c3cccc(-c4cnc(CN5CC(C)(O)C5)c(OC)n4)c3Cl)c2Cl)nc2c1CCN(CCO)C2', 4.39),
  ('COc1nc(-c2cccc(-c3cccc(NC(=O)c4cc(C)c5c(n4)CN(CCO)CC5)c3Cl)c2Cl)cnc1CN1CCCC1CO (centres unmarked)', 3.72),
  ('COc1nc(-c2cccc(-c3cccc(NC(=O)c4cc(C)c5c(n4)CN(CCO)CC5)c3Cl)c2Cl)cnc1CN1CC2(CC(O)C2)C1', 4.62),
  ('Cc1cc(C(=O)Nc2cccc(-c3cccc(NC(=O)c4ccc(CNCCO)cn4)c3C)c2Cl)nc2c1CCN(C1CCC(C)(C(=O)O)CC1)C2 (centres unmarked)', 3.43),
  ('COc1nc(-c2cccc(-c3cccc(NC(=O)c4cc(C)c5c(n4)CN(CCO)CC5)c3Cl)c2Cl)cnc1CNCC1CCC(=O)N1 (centres unmarked)', 4.40),
  ('COc1nc(-c2cccc(-c3cccc(NC(=O)c4cc(C#N)c5c(n4)CN(CCO)CC5)c3Cl)c2Cl)cnc1CNCCO', 5.35),
  ('COc1nc(-c2cccc(-c3cccc(NC(=O)c4cc(C)c5c(n4)CN(CCO)C5)c3Cl)c2Cl)cnc1CN1CC(O)C1', 4.55),
  ('COc1nc(-c2cccc(-c3cccc(NC(=O)c4cc(C)c5c(n4)CN(CC(=O)O)CC5)c3Cl)c2C)cnc1CN1CC(O)C1', 3.79);
